Every entry's value here was drawn from PubChem BioAssay.

I'd appreciate it if you could supply composite z-score values for the items below.
measurement.target: Pro-neuregulin-1, membrane-bound isoform (Homo sapiens)
method.description: small molecules binding neuregulin-1 protein – biochemical, small-molecule microarray, fluorescence 635/667, psychiatric disease protein project, primary screen (AID 1075);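 further: score combines 667 nm spot fluorescence with signal to noise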
conditions.used: NRG1 binding, 635 nm fluorescence, higher = more signal
One number for each entry.

In the examples that follow, each entry is paired with its recorded composite z-score.
compound: COCCCNC(=O)[C@@H]1c2ccccc2C(=O)N(Cc2ccccc2)[C@H]1c1ccc(CO)cc1
composite z-score: 0.943
--
compound: O=C1N(CCS(=O)(=O)c2ccccc2)c2ccccc2[C@@H]2OC(c3ccc(OCCCO)cc3)=N[C@]12Cc1ccccc1
composite z-score: 1.38
--
compound: CC(C)OC(=O)C=C1C[C@@H](c2cccc(Cl)c2)O[C@@H](c2cccc(Cl)c2)O1
composite z-score: 0.903
--
compound: [N-]=[N+]=NCc1ccccc1[C@@H]1OC(c2ccc(OCCCO)cc2)=N[C@]1(CCS(=O)(=O)c1ccccc1)C(=O)N1CCCCC1
composite z-score: 2.13
--
compound: C=C(/C(=C/C[C@H](OC(C)=O)c1ccc(OCCO)cc1)c1cc(C(=O)OC)ccc1OC)C(C)C
composite z-score: 1.17

# per-item lookup of composite z-score; items listed below
1. O=C1OCC=C[C@H]2OC34C=CCN(CCN5CCOCC5)C(=O)[C@H]3N(CCO)C(=O)[C@@H]4[C@@H]12 (stereo partly drawn)
2. CC(C)N1CC=CC23O[C@@H]4C=CCOC(=O)[C@@H]4[C@H]2C(=O)N(CCCCCO)[C@@H]3C1=O (stereo partly drawn)
3. CC(C)[Si](C#CCCCC#N)(Oc1ccccc1Br)C(C)C

Reply |
0.605
0.24
0.151

---

measurement.target: Calmodulin-1 (Homo sapiens) (UniProt P0DP23)
method.description: small molecules binding calmodulin-1 with EGTA – biochemical, small-molecule microarray, Cy5-labelled CALM1, profiling panel (AID 1111);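 further: labelled calmodulin applied in Tris saline Tween buffer holding calcium plus EGTA and DTT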
conditions.used: Cy5-CALM1 binding fluorescence, higher = more signal
Please provide measured composite z-score for the entries that follow.
Numbers only.

Hi! Can you tell me composite z-score for each of these compounds?
1. CO[C@H]1O[C@H](CO)[C@@H](OC(=O)Nc2ccccc2-c2ccccc2)[C@H](OC(=O)Nc2ccccc2-c2ccccc2)[C@@H]1OC(=O)Nc1ccccc1-c1ccccc1
2. O=C1N(CCS(=O)(=O)c2ccccc2)c2ccccc2[C@@H]2OC(c3ccc(OCCCO)cc3)=N[C@]12Cc1ccccc1
3. CCN(CC)c1ccc(N2CC=CC34O[C@@H]5C=CCOC(=O)[C@@H]5[C@H]3C(=O)N(CCCCCCO)[C@@H]4C2=O)cc1 (some centres undefined)
4. O=C1O[C@@H](c2ccccc2)[C@@H](c2ccccc2)N2[C@@H](c3ccc(OCCO)cc3)[C@]3(C(=O)Nc4ccc(C#CC5=CCCCC5)cc43)[C@@H](C(=O)N3CCCCCCC3)[C@H]12
5. COCCOC(=O)N1C(=O)[C@@]2(c3cc(C#CC4(O)CCCCCC4)ccc31)[C@H](C(=O)Nc1nc3ccccc3s1)[C@H]1C(=O)O[C@H](c3ccccc3)[C@H](c3ccccc3)N1[C@@H]2c1ccc(OCCO)cc1
6. Cc1ccc(C2C3C(=O)CC4C(=O)N(c5ccccc5)C(=O)C4C3CN2S(=O)(=O)c2ccc(C)cc2)cc1 (centres undefined)
7. COc1cc(CO)cc(I)c1O[C@H]1C=C(C(=O)NCCO)C[C@@H](N(C(=O)c2cc3ccccc3oc2=O)C2CCCCCC2)[C@@H]1O

Reply |
1.74
0.835
-0.333
2.33
0.693
1.33
-0.23

Give composite z-score for each listed item.
1. NC(=O)NCC#Cc1ccc2c(c1)[C@]1(C(=O)N2)[C@H](C(=O)O)[C@H]2C(=O)O[C@H](c3ccccc3)[C@H](c3ccccc3)N2[C@@H]1c1ccc(O)cc1
2. O=C1NC(=O)C2C1C=CC(C(O)c1ccc(-c3ccccc3)s1)N2Nc1ccc(Cl)cc1Cl (centres undefined)
3. O[C@@H](Cc1ccccc1)[C@@H](/C=C/C1CC1)NCc1cccc(Cl)c1

Reply |
[1.6, 1.65, -0.863]

Please report composite z-score for every entry that follows.
1. COCCOC(=O)N1C(=O)[C@@]2(c3cc(C#CC4(O)CCCCCC4)ccc31)[C@H](c1ccccc1OCCO)N1[C@H](c3ccccc3)[C@H](c3ccccc3)OC(=O)[C@H]1[C@@H]2C(=O)N1CCc2cc(OC)c(OC)cc2C1
2. N#Cc1ccc(C(O)C2C=CC3C(=O)N(c4ccccc4)C(=O)C3N2Nc2ccccc2F)cc1 (centres undefined)
3. CCCCCCc1nc(-c2ccc(-c3ccc(Cl)c(Cl)c3)o2)cc2c1[Si](C(C)C)(C(C)C)O[C@H]2c1ccccc1
4. CCOC(=O)C1=CC[C@@H](c2ccc(C(F)(F)F)cc2)N(S(=O)(=O)c2ccc(C)cc2)[C@H]1c1ccccc1

Reply |
1. 1.26
2. 0.123
3. -0.365
4. 2.08

---

method.description: compound effects on hepatocellular carcinoma cell viability – HepG2, calcein-AM fluorescence, 48 h, basal, profiling panel (AID 1164); further: test concentration not given here
conditions.used: higher = more signal
Output satisfied for z-score not less than -0.4; output not satisfied otherwise.

molecule: C=CC[C@]1(C(=O)N2CCOCC2)N=C(c2ccc(OCCCO)cc2)O[C@H]1c1ccccc1N=[N+]=[N-]
category: satisfied
--
molecule: COCCOC(=O)N1C(=O)[C@@]2(c3ccccc31)[C@H](C(N)=O)[C@H]1C(=O)O[C@H](c3ccccc3)[C@H](c3ccccc3)N1[C@@H]2c1ccc(O)cc1
category: satisfied
--
molecule: C=CC[C@]12N=C(c3ccc(OCCCO)cc3)O[C@H]1c1ccccc1N(CCS(=O)(=O)c1ccccc1)C2=O
category: satisfied

Please look at the following molecule next.
Ask | I'd appreciate it if you could say whether `CC(C)C(=C=CC[C@H](O)c1ccc(CO)o1)CCO` has z-score at least equal to -0.4.
Reply | satisfied

---

Test system: Plasmodium falciparum Sir2 (PF13_0152, Sir2A)
method.description: Plasmodium falciparum Sir2A binding compounds – biochemical, small-molecule microarray, 635 nm fluorescence, primary screen (AID 1098);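 further: score merges spot fluorescence intensity with its signal-to-noise ratio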
conditions.used: fluorescence 635 nm, higher = more signal
readout.name: composite z-score
Give bare numbers.

molecule: C=CC1c2cc(O)c(OC)cc2CCN1Cc1cccc(OC(F)(F)F)c1 (configuration not stated)
composite z-score: -0.128

Look up composite z-score for the entries below, preserving their order.
1. Cc1ccc(S(=O)(=O)N2C[C@@H](C(=O)O)[C@H](Sc3ccccc3)C[C@H]2c2ccccc2)cc1
2. CCOC(=O)C1=CCC(c2ccc(F)cc2)N(S(=O)(=O)c2ccc(C)cc2)C1 (configuration not stated)
3. COC(=O)[C@@]1(Cc2ccccc2)[C@H]2c3cc(C(=O)N(C)C)n(Cc4ccc(OC)c(OC)c4)c3C[C@H]2CN1C(=O)c1ccccc1
4. CN(C)C(=O)[C@]1(Cc2ccccc2)N=C(c2ccc(OCCCO)cc2)O[C@@H]1c1ccccc1N=[N+]=[N-]

Reply |
[1.47, 0.12, 0.0313, 0.684]

Value sought for every listed molecule: composite z-score.
1. COC(=O)c1c(CC[C@@H](CO)NC(=O)N[C@H](Cc2ccccc2)Cn2cc(-c3ccccn3)nn2)oc(C(C)=O)c1C(=O)OC
2. COCCOC(=O)N1C(=O)[C@@]2(c3cc(C#CCCO)ccc31)[C@H](c1ccc(O)cc1)N1[C@H](c3ccccc3)[C@H](c3ccccc3)OC(=O)[C@H]1[C@@H]2C(=O)N1CCN(c2ncccn2)CC1

Reply |
1. 1.48
2. 1.71

---

Give measured z-score for each item. Keep answers brief.
method.description: plasmodial surface anion channel blockers, osmotic lysis – cell-based, P. falciparum Indochina, OD700, 1 h, primary screen (AID 1154)
conditions.used: P. falciparum Indochina infected RBC osmotic lysis, higher = more signal, called active from +8 up or from −8 down
Numbers only.

compound: CCCCN1CC=CC23O[C@@H]4C=CCOC(=O)[C@@H]4[C@H]2C(=O)N(CCCCCCO)[C@@H]3C1=O (some centres undefined)
z-score: 2.08

Hello, I would appreciate it if you could give z-score for each entry below.
1. O=C1C2C=CC(C(O)c3c(F)cccc3Cl)N(Nc3ccccc3F)C2C(=O)N1c1ccccc1 (centres undefined)
2. C=CCNC(=O)[C@H]1[C@@H]2C(=O)O[C@@H](c3ccccc3)[C@@H](c3ccccc3)N2[C@@H](c2ccc(O)cc2)[C@]12C(=O)Nc1ccc(C#CCCO)cc12
3. O=c1cccc(-c2ccccc2Cl)o1

Reply |
[6.75, 5.56, 0.298]

---

measurement.target: Concanavalin-A (Canavalia ensiformis) (UniProt P02866)
Sequence (P02866 whole entry, looked up): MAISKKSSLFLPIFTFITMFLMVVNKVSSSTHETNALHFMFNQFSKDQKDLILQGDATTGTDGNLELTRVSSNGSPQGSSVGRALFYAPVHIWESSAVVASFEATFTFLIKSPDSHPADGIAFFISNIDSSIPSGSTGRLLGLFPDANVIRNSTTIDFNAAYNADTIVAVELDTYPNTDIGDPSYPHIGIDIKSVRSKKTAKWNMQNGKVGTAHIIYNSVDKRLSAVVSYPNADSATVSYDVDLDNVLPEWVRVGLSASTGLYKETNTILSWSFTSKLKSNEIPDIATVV
method.description: compounds binding concanavalin A lectin – biochemical, small-molecule microarray, Alexa647 label, 635 nm, artefact control for SMM control protein annotation, primary screen (AID 1127);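 further: z combines 667 nm emission intensity with signal-to-noise across three replicate slides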
conditions.used: ConA-A647 binding fluorescence, higher = more signal
Please mark label 1 if the recorded composite z-score is equal to or greater than 1, and label 0 if it falls below.

Below, 3 compounds whose answers are already recorded.
smi: C=CCOC(=O)[C@H]1[C@@H]2C(=O)O[C@@H](c3ccccc3)[C@@H](c3ccccc3)N2[C@@H](c2ccc(OCCOC(=O)[C@H]3C[C@H]4C(=O)N[C@@H](CCCCN(C)C)C(=O)N4[C@H]3c3cccc(OCCO)c3)cc2)[C@]12C(=O)Nc1ccc(I)cc12
measurement.target: Concanavalin-A (Canavalia ensiformis) (UniProt P02866)
category: label 1
//
smi: CN(C)C(=O)[C@]1(Cc2ccccc2)N=C(c2ccc(OCCCO)cc2)O[C@@H]1c1ccccc1N=[N+]=[N-]
measurement.target: Concanavalin-A (Canavalia ensiformis) (UniProt P02866)
category: label 1
//
smi: [N-]=[N+]=NCc1ccccc1[C@@H]1OC(c2ccc(OCCCO)cc2)=N[C@]1(CCS(=O)(=O)c1ccccc1)C(=O)N1CCCCC1
measurement.target: Concanavalin-A (Canavalia ensiformis) (UniProt P02866)
category: label 1

Turning now to a further record.
Ask | Threshold query (composite z-score >= 1) on `COC(=O)[C@@]1(Cc2ccc(OC)cc2)[C@H]2c3cc(C(=O)N4CCCC4)n(CCc4ccc(O)c(O)c4)c3C[C@H]2CN1C(=O)c1ccccc1`
Reply | label 0
